All values here come from patent US20250027068.

Target: pooled human IgG (human IgG1, 2, 3 and 4)
Readout Name: Enzyme Activity Endpoint Assay (purified): Fab′2 (ng/µL)
Answers are plain numbers, in ng/µL.

Protein	Readout Value
PRT-431 (protein) MSQTEDSESLQRLRDIEDFQAEKKKQNVVYTKWLDGVDVKDHDFRKIVDGNIAYYATPLLNGRGFYDINKDFNRDSDKCAAAVAANMFHYWLDRNRDNVDRFLRQNPEKHGIIELPDGQLKLSDFLNTYESDDGYRDKSKLFDFISENFNGPVWTDKLLDNYINGYAYNYKYGRTIEDPTKNTSKINFFKEVFNEKILTNNHSIRNQNEFSVLLSEALYTGKAIGLSYGPAGLRHSLGHIISVWGADLDADGNVVAIYVTDSDDKKLTIGDERVGLKRYKISTDDEGRLRLTAYEETHNTGGQIRGLWTLDTGKQAWADYFDKTEQTGTDQAEQ	521
PRT-469 (protein) MVTSVWTKGVTPPTDFIKGEDVFHAPYKAGQGWYDITKAFDGGDDLLCGAATAGNMLHWWFDQNKDQIERYLKEHPEKQKINFNGEQMFDVKEAIDTKDSQTNSELFNYFKEKAFPYLSTKHLGVFPDHVLDMFINGYRLSLTNHGPTPVKRQEKDPRGGIFDAVFGRGDQTKLLTSRHDLKNKTLKEISDLIKQELTEGKALGLSHTYANVRINHVINLWGADFDSEGNLKAIYVTDSDSNASIGMKKYFVGVNSAGKVAISAKEIKEDNIGAQVLGLFTLSTGQKIWNKTNLEHHHHHH	41
PRT-407 (protein) MVTSVWTKGVTPPADFTQGEDVFHAPYVANQGWYDITKTFNGKDDLLCGAATAGNMLHWWFDQNKEYIEAYLKKHPEKQKIIFGDQELLDVRKAINTKGSQKNSELFNYFRDKAFPNLSARRLGVMPDLVLDMFINGYYLNVTKTQTTDVNRTYQEKDKRGGIFDAVFTRGDQSKLLTSRHDFKEKGLKEISDLIKQELTEGKALGLSHTYANVRINHVINLWGADFDSDGNLKAIYVTDSDSNASIGMKKYFVGVNSAGKVAISAKEIKEDNIGAQVLGLFTLSTGQDIWNQTN	209

Okay, now this protein:
Data request: Item under review: PRT-660 (protein) MQITSVWTKGVTPLTPEQFRYNNEDVIHAPYLAHQGWYDITKAFDGKDNLLCGAATAGNMLHWWFDQNKTEIEAYLSKHPEKQKIIFNNQELFDLRKAINTKDDQKESALFNYFRKKAFPNLSARQLGVMPDLVLDMFINGYYLNVFKTQSTDVNRPYQDKDKRGGIFDAVFTRGDQTTLLTARHDLKNKGLNDISTIIKQELTEGRALALSHTYANVSISHVINLWGADFNAEGNLEAIYVTDSDANASIGMKKYFVGINAHGHVAISAKKIEGENIGAQVLGLFTLSSGKDIWQKLSLEHHHHHH . Reported Enzyme Activity Endpoint Assay (purified): Fab′2?
Data returned: 161
